Experiment: Quantitative High-Throughput drug screen in 47 multiple myeloma cell lines against the NCATS MIPE library collection: KMS27_JCRB cell viability assay (AID 1918970); note: nearly all actives have a fitted effect of over 30% in size; note: potency is the fitted concentration of half-maximal effect
Conditions: KMS27 myeloma cells, CellTiter-Glo ATP viability, 48 h
Results filed as inconclusive are left out. The source made the active and inactive calls. Calls come from the whole dose curve; as a rule, active = well fitted cell-killing curve with a large enough effect; inconclusive = small, poorly fitted or top-dose-only effect, or effect the other way; inactive = no such curve, though single readings can be large or run the other way.
ENDPOINT_LABEL: Potency

Sample records with Potency:
>  <COMPOUND>
O=C1NC(O)CCN1[C@@H]1O[C@H](CO)[C@H](O)[C@H]1O (some centres undefined)

>  <READING>
inactive

$$$$
>  <COMPOUND>
CC(C)NC[C@@H](C(=O)N1CCN(c2ncnc3c2[C@H](C)C[C@H]3O)CC1)c1ccc(Cl)cc1

>  <READING>
1.87 µM (active)

$$$$
>  <COMPOUND>
CC(=O)O[C@]1(C(C)=O)CC[C@H]2[C@@H]3C=C(C)C4=CC(=O)CC[C@]4(C)[C@@H]3CC[C@@]21C

>  <READING>
9.35 µM (active)

$$$$
>  <COMPOUND>
CCc1cnn2c(NCc3ccc[n+]([O-])c3)cc(N3CCCC[C@@H]3CCO)nc12

>  <READING>
0.0187 µM (active)

$$$$

Parameter requested: Potency. Apply to each item below.
1. COc1ccc2c(c1OC)C(=O)OC2[C@H]1c2c(cc3c(c2OC)OCO3)CCN1C (some centres undefined)
2. FC(F)(F)c1ccc(Nc2nc3ccc(Oc4ccnc(-c5ncc(C(F)(F)F)[nH]5)c4)cc3[nH]2)cc1
3. CC(Cc1ccc(O)c(O)c1)(NN)C(=O)O (centres undefined)

# output
1: 0.132 µM (active); 2: 23.5 µM (active); 3: inactive

Parameter requested: Potency. Apply to each item below.
1. Cc1nc(NC(=O)N2CCC[C@@H]2C(N)=O)sc1-c1ccnc(C(C)(C)C(F)(F)F)c1
2. COc1ccc(S(=O)(=O)Nc2cc(-c3c(O)ccc4ccccc34)c(O)c3ccccc23)cc1

# output
inactive
14.8 µM (active)

====

Test system: WaGa
Test: qHTS assay to identify novel small-molecules to repurpose for Merkel cell carcinoma treatment (AID 1296009); note: nearly all actives have a fitted effect of over 60% in size
Settings: MCC and control cell lines, CellTiter-Glo viability, 72 h; series mostly up to 46 µM
Inconclusive results are not listed. The source made the active and inactive calls. Calls come from the whole dose curve; as a rule, active = well fitted inhibition curve with a large enough effect; inconclusive = small, poorly fitted or top-dose-only effect; inactive = flat fitted curve, though single readings scatter.
I would appreciate it if you answered using one of these outcomes: active, inactive

// below: answered molecules
>  <MOLECULE>
CN[C@H](CC(C)C)C(=O)N[C@H]1C(=O)N[C@@H](CC(N)=O)C(=O)N[C@@H]2C(=O)N[C@H]3C(=O)N[C@H](C(=O)N[C@H](C(=O)O)c4cc(O)cc(O)c4-c4cc3ccc4O)[C@H](O)c3ccc(c(Cl)c3)Oc3cc2cc(c3O[C@@H]2O[C@H](CO)[C@@H](O)[C@H](O)[C@@H]2O[C@H]2C[C@](C)(N)[C@H](O)[C@H](C)O2)Oc2ccc(cc2Cl)[C@H]1O

>  <CATEGORY_LABEL>
inactive

$$$$
>  <MOLECULE>
CCOC(=O)C=C[C@H](C[C@@H]1CCNC1=O)NC(=O)[C@@H](CC(=O)[C@@H](NC(=O)c1cc(C)on1)C(C)C)Cc1ccc(F)cc1

>  <CATEGORY_LABEL>
inactive

$$$$

# input What is the recorded call for this molecule in the test? O=C1NC(O)CCN1[C@@H]1O[C@H](CO)[C@H](O)[C@H]1O (stereo partly specified)
# output inactive

# input What is the recorded call for this molecule in the test? COc1ccc(C[C@@H](C)[C@@H](C)Cc2ccc(OC)c(OC)c2)cc1OC
# output active

# input What is the recorded call for this molecule in the test? Nc1nc(=O)n([C@H]2C[C@H](O)[C@@H](CO)O2)cc1F
# output active

# input What is the recorded call for this molecule in the test? C[C@H](NC(=O)[C@@H](O)c1cc(F)cc(F)c1)C(=O)N[C@@H]1C(=O)N(C)c2ccccc2-c2ccccc21
# output inactive
